- target-or-system: T1, hIL-18Rα ECD-Fc fusion protein (human, UniProt Q13478 22-329)
- T1 construct: extracellular domain; captured on Protein A sensor
- T1 sequence (looked up): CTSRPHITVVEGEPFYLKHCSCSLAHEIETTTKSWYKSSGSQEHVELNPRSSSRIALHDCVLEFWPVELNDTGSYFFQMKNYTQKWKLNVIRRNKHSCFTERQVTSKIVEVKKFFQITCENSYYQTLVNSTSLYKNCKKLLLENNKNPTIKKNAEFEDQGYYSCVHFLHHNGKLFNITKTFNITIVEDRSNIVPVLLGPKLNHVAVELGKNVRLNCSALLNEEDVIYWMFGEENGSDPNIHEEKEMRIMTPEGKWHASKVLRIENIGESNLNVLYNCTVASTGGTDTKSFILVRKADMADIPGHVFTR
- test-method-notes: BLI (Octet RED96), hIL-18Rα ECD-Fc on Protein A sensor
Kindly apply the following: TRUE if koff is less than 0.05 s⁻¹, FALSE in every other case.

IL-18 variant polypeptide M26 (ligand) YFPKLRSKLSVIRNLNDQVLFIDQGNRPLFEDMTDSDCRDNAPRTIFIISMYKHSDKRGMAVTISVKCEKISTLSCENKIISFKEMNPPDVIKDTKSDIIFFQYSVPGHDNKMQFESSSYEGYFLACEKERDLFKLILKKEDELGDRSIMFTVQNED
TRUE

Prompt: koff strictly < 0.05 s⁻¹ for this binder? IL-18 variant polypeptide M23 (ligand) YFPKLRSKLSVIRNLNDQVLFIDQGNRPLFEDMTDSDCRDNAPRTIFIISMYKYSTRRGMAVTISVKCEKISTLSCENKIISFKEMNPPDNIKDTKSDIIFFQRSVPGHDNKMQFESSSYEGYFLACEKERDLFKLILKKEDELGDRSIMFTVQNED
Response: TRUE

Prompt: koff strictly < 0.05 s⁻¹ for this binder? IL-18 variant polypeptide M32 (ligand) YFPKLGSKLSVIRNLNDQVLFIDQGNRPLFEDMTDSDCRDNAPRTIFIISMYKSSSRRGMAVTISVKCEKISTLSCENKIISFKEMNPPDNIKDTKSDIIFFQRSVPGHDNKMQFESSSYEGYFLACEKERDLFKLILKKEDELGDRSIMFTVQNED
Response: TRUE

Prompt: koff strictly < 0.05 s⁻¹ for this binder? IL-18 variant polypeptide M17 (ligand) YFPKLRSKLSVIRNLNDQVLFIDQGNRPLFEDMTDSDCRDNAPRTIFIISMYKLSTARGMAVTISVKCEKISTLSCENKIISFKEMNPPDGIKDTKSDIIFFQRSVPGHDNKMQFESSSYEGYFLACEKERDLFKLILKKEDELGDRSIMFTVQNED
Response: TRUE
